The measurements presented in this section are drawn from patent US7223773B2.

MEASURED QUANTITY: MIC (µg/mL)
Report the value in µg/mL with no unit label.

Problem: Recall the recorded MIC for Cc1c(-c2ccc(C#N)cc2)ccn2c(=O)c(C(=O)O)cc(C3CC3)c12 [Example 36] with Staphylococcus epidermidis IFO 12993 and state it.
Result: 0.016

Problem: Recall the recorded MIC for Cc1ccc(-c2ccn3c(=O)c(C(=O)O)cc(C4CC4)c3c2C)cc1N [Example 63] with Staphylococcus epidermidis IFO 12993 and state it.
Result: 0.016

Problem: Recall the recorded MIC for C[C@H]1COc2c(N3CCN(C)CC3)c(F)cc3c(=O)c(C(=O)O)cn1c23 [Levofloxacin, reference compound] with Staphylococcus epidermidis IFO 12993 and state it.
Result: 0.25

---

For each record, write down the corresponding MIC.
System: Bacteroides fragilis GAI 0675
Report the value in µg/mL with no unit label.

Problem: Recall the recorded MIC for `Cc1c(-c2ccc(N)c(F)c2)ccn2c(=O)c(C(=O)O)cc(C3CC3)c12` with Bacteroides fragilis GAI 0675 and state it.
Result: 0.031

Problem: Recall the recorded MIC for C[C@H]1COc2c(N3CCN(C)CC3)c(F)cc3c(=O)c(C(=O)O)cn1c23 [Levofloxacin, reference compound] with Bacteroides fragilis GAI 0675 and state it.
Result: 0.5

Problem: Recall the recorded MIC for `Cc1c(-c2ccc(N)nc2)ccn2c(=O)c(C(=O)O)cc(C3CC3)c12` with Bacteroides fragilis GAI 0675 and state it.
Result: 0.5

Problem: Recall the recorded MIC for `Cc1c(-c2cccc(N)c2)ccn2c(=O)c(C(=O)O)cc(C3CC3)c12` with Bacteroides fragilis GAI 0675 and state it.
Result: 0.125

Problem: Recall the recorded MIC for `COc1ccc(-c2ccn3c(=O)c(C(=O)O)cc(C4CC4)c3c2C)cn1` with Bacteroides fragilis GAI 0675 and state it.
Result: 0.063

---

For each record, write down the corresponding MIC.
System: Bacteroides thetaiotaomicron ATCC 29741
Assay: in vitro antibacterial activity on anaerobic bacteria (MIC)
Type: cell-based
Conditions: ATCC29741; Bacteroides thetaiotaomicron ATCC 29741, anaerobic; read-out: Antimicrobial spectrum MIC
Report the value in µg/mL with no unit label.

Problem: For the molecule shown here, `Cc1c(-c2ccc(N)c(F)c2)ccn2c(=O)c(C(=O)O)cc(C3CC3)c12` , give the reported MIC.
Result: 0.125

Problem: For the molecule shown here, `Cc1ccc(-c2ccn3c(=O)c(C(=O)O)cc(C4CC4)c3c2C)cc1N` , give the reported MIC.
Result: 0.25

Problem: For the molecule shown here, `Cc1c(-c2ccc(CN)cc2)ccn2c(=O)c(C(=O)O)cc(C3CC3)c12` , give the reported MIC.
Result: 0.5

Problem: For the molecule shown here, `Cc1c(-c2ccc(CN)o2)ccn2c(=O)c(C(=O)O)cc(C3CC3)c12` , give the reported MIC.
Result: 2

---

MEASURED QUANTITY: MIC

Problem: Recall the recorded MIC for `Cc1c(-c2ccc(N)c(F)c2)ccn2c(=O)c(C(=O)O)cc(C3CC3)c12` with Staphylococcus aureus IID 803(Smith) and state it.
Result: ≤ 4 ng/mL

Problem: Recall the recorded MIC for `Cc1c(-c2ccc(N)cc2)ccn2c(=O)c(C(=O)O)cc(C3CC3)c12` with Staphylococcus aureus IID 803(Smith) and state it.
Result: ≤ 4 ng/mL

Problem: Recall the recorded MIC for `CC(=NO)c1ccc(-c2ccn3c(=O)c(C(=O)O)cc(C4CC4)c3c2C)cc1` with Staphylococcus aureus IID 803(Smith) and state it.
Result: ≤ 4 ng/mL

---

For Staphylococcus aureus Clin-211(MRSA), measured log10 MIC is reported for the entries below.
Note: values are log10 of MIC expressed in µg/mL.

Problem: For the molecule shown here, CC(=NO)c1ccc(-c2ccn3c(=O)c(C(=O)O)cc(C4CC4)c3c2C)cc1 [Example 38] , give the reported log10 MIC.
Result: -1.20

Problem: For the molecule shown here, C[C@H]1COc2c(N3CCN(C)CC3)c(F)cc3c(=O)c(C(=O)O)cn1c23 [Levofloxacin, reference compound] , give the reported log10 MIC.
Result: 0.60

Problem: For the molecule shown here, COc1ccc(-c2ccn3c(=O)c(C(=O)O)cc(C4CC4)c3c2C)cn1 [Example 32] , give the reported log10 MIC.
Result: -0.90

Problem: For the molecule shown here, Cc1c(-c2ccc(N)nc2)ccn2c(=O)c(C(=O)O)cc(C3CC3)c12 [Example 89] , give the reported log10 MIC.
Result: -0.30

Problem: For the molecule shown here, Cc1c(-c2ccc(NCCO)cc2)ccn2c(=O)c(C(=O)O)cc(C3CC3)c12 [Example 46] , give the reported log10 MIC.
Result: -1.51

Problem: For the molecule shown here, Cc1ccc(-c2ccn3c(=O)c(C(=O)O)cc(C4CC4)c3c2C)cc1 [Example 31] , give the reported log10 MIC.
Result: -0.90

Problem: For the molecule shown here, Cc1c(-c2ccc(CN)cc2)ccn2c(=O)c(C(=O)O)cc(C3CC3)c12 [Example 24] , give the reported log10 MIC.
Result: -0.30

Problem: For the molecule shown here, Cc1ccc(-c2ccn3c(=O)c(C(=O)O)cc(C4CC4)c3c2C)cc1N [Example 63] , give the reported log10 MIC.
Result: -1.20

Problem: For the molecule shown here, CC(=O)c1ccc(-c2ccn3c(=O)c(C(=O)O)cc(C4CC4)c3c2C)cc1 [Example 28] , give the reported log10 MIC.
Result: -0.90

Problem: For the molecule shown here, CCOC(=O)c1cc(C2CC2)c2c(C)c(-c3cc(F)c(CN)s3)ccn2c1=O [Example 111] , give the reported log10 MIC.
Result: -0.60

Problem: For the molecule shown here, Cc1c(-c2cccc(N)c2)ccn2c(=O)c(C(=O)O)cc(C3CC3)c12 [Example 26] , give the reported log10 MIC.
Result: -0.90

Problem: For the molecule shown here, Cc1c(-c2cccc(CN3CCNCC3)c2)ccn2c(=O)c(C(=O)O)cc(C3CC3)c12 [Example 119] , give the reported log10 MIC.
Result: 0.00

---

System: Pseudomonas aeruginosa CSJ 1853
Assay: in vitro antibacterial activity, agar plate dilution method (MIC)
Format: cell-based
Conditions: CSJ1853, read-out: Antimicrobial spectrum MIC
MEASURED QUANTITY: MIC (µg/mL)
Report the value in µg/mL with no unit label.

Problem: For the compound shown here, `Cc1c(-c2ccc(CN)cc2)ccn2c(=O)c(C(=O)O)cc(C3CC3)c12` , give the reported MIC.
Result: 0.5

Problem: For the compound shown here, `COc1ccc(-c2ccn3c(=O)c(C(=O)O)cc(C4CC4)c3c2C)cc1CN` , give the reported MIC.
Result: 0.5

Problem: For the compound shown here, `Cc1c(-c2ccc(C#N)cc2)ccn2c(=O)c(C(=O)O)cc(C3CC3)c12` , give the reported MIC.
Result: 0.5

Problem: For the compound shown here, C[C@H]1COc2c(N3CCN(C)CC3)c(F)cc3c(=O)c(C(=O)O)cn1c23 [Levofloxacin, reference compound] , give the reported MIC.
Result: 0.5

Problem: For the compound shown here, `Cc1ccc(-c2ccn3c(=O)c(C(=O)O)cc(C4CC4)c3c2C)cc1` , give the reported MIC.
Result: 0.5

Problem: For the compound shown here, `Cc1ccc(-c2ccn3c(=O)c(C(=O)O)cc(C4CC4)c3c2C)cc1N` , give the reported MIC.
Result: 1

Problem: For the compound shown here, `Cc1c(-c2ccc(N)nc2)ccn2c(=O)c(C(=O)O)cc(C3CC3)c12` , give the reported MIC.
Result: 1

Problem: For the compound shown here, `Cc1c(-c2ccc(N)cc2)ccn2c(=O)c(C(=O)O)cc(C3CC3)c12` , give the reported MIC.
Result: 0.25
